Each recorded value in this set is attributed to paper PMC4832855.

# ASSAY_DETAILS: Phase I first-in-human study: pharmacokinetics
# Assay type: in vivo
# ASSAY_SETUP: human, plasma, po, 37.5 mg/day, C max, patients, oral 37.5 mg/day, Day 1 (n = 7), mean ± SD
QUANTITY: Cmax (ng/mL)
Respond numerically; units are ng/mL and should not be typed.

Q: For the molecule `Cc1ccsc1C(=O)Nc1cc(CN2CCN(C(=O)CO)CC2)ccc1/C=C/c1n[nH]c2ccccc12` , what Cmax is on record?
A: 2330

====

# ASSAY_DETAILS: Phase I first-in-human study: pharmacokinetics
# Type: in vivo
# ASSAY_SETUP: human, plasma, po, 37.5 mg/day
QUANTITY: concentration at 1 day (ng/mL)
Give the value in ng/mL but do not write ng/mL after it.

Q: What value of measured concentration at 1 day is listed for Cc1ccsc1C(=O)Nc1cc(CN2CCN(C(=O)CO)CC2)ccc1/C=C/c1n[nH]c2ccccc12 [KW‐2450] ?
A: 608

====

# ASSAY_DETAILS: Phase I first-in-human study: pharmacokinetics
# Type: in vivo
# ASSAY_SETUP: human, plasma, po, 37.5 mg/day
QUANTITY: concentration at 28 day (µg/mL)
Note: unit µg/mL is implicit; provide only the numeric part.

Q: Reported concentration at 28 day, compound `Cc1ccsc1C(=O)Nc1cc(CN2CCN(C(=O)CO)CC2)ccc1/C=C/c1n[nH]c2ccccc12` : ____
A: 0.89

====

# ASSAY_DETAILS: Phase I first-in-human study: pharmacokinetics
# Format: in vivo
# ASSAY_SETUP: human, plasma, po, 37.5 mg/day, VZ/F, patients, oral 37.5 mg/day, Day 1, n = 5, mean ± SD
QUANTITY: Vd/F (L)
API: value field is a number in L; no unit string.

Q: Any idea what its Vd/F is? The compound is `Cc1ccsc1C(=O)Nc1cc(CN2CCN(C(=O)CO)CC2)ccc1/C=C/c1n[nH]c2ccccc12`
A: 19.6

====

# ASSAY_DETAILS: Phase I first-in-human study: pharmacokinetics
# Assay type: in vivo
# ASSAY_SETUP: human, plasma, po, 37.5 mg/day, C max, patients, oral 37.5 mg/day, Day 28 (n = 5), mean ± SD
QUANTITY: Cmax (ng/mL)
Numeric answer only, unit ng/mL assumed.

Q: Could you tell me which Cmax is on file for Cc1ccsc1C(=O)Nc1cc(CN2CCN(C(=O)CO)CC2)ccc1/C=C/c1n[nH]c2ccccc12 [KW‐2450] ?
A: 2370

====

# ASSAY_DETAILS: Phase I first-in-human study: pharmacokinetics
# Format: in vivo
# ASSAY_SETUP: human, plasma, po, 37.5 mg/day, T max, patients, oral 37.5 mg/day, Day 1 (n = 7), mean ± SD
QUANTITY: Tmax (h)
Your answer is read as h, so omit the unit and give the number.

Q: Need Tmax of `Cc1ccsc1C(=O)Nc1cc(CN2CCN(C(=O)CO)CC2)ccc1/C=C/c1n[nH]c2ccccc12` , thanks.
A: 2.29

====

# ASSAY_DETAILS: Pharmacokinetic study in mice, single oral dose
# Type: in vivo, mouse
# ASSAY_SETUP: male, SCID, mouse, plasma, po, 20 mg/kg
QUANTITY: Tmax

Q: Consider the compound shown here: Cc1ccsc1C(=O)Nc1cc(CN2CCN(C(=O)CO)CC2)ccc1/C=C/c1n[nH]c2ccccc12 [KW‐2450] What is its recorded Tmax?
A: 15 to 60 min
